Tested on: OVCAR-8 ovarian
Assay: NCI-60 one-dose screen, 48 h
Conditions: 10 µM
Description: Growth inhibition of the OVCAR-8 human tumor cell line is measured as a screen for anti-cancer activity. Cells are grown in 96 well plates and exposed to the test compound for 48 hours. Compounds are tested at a single concentration, which is 10^-5 M for most compounds. The reported endpoint is percent growth (GI% or GIPRCNT), where numbers from 0 - 100% represent growth inhibition, and numbers from -100% - 0 represent cell death. For example, a value of 40 represents 60% growth inhibition. […]
Compounds without any hit were thinned out: in the full panel of roughly 83,000, 20% have a hit. Active and inactive are the calls of the source. The calls were made as follows: active = growth percent below 10; inactive = the rest.
Respond only with the outcome that fits, drawn from Yes (active), No (inactive)

Input: Status in this test for CCc1ccc(-c2ccc(-n3nc(C)c4c(N)nc(Cc5ccccc5)nc43)cc2)cc1 ?
Output: No

Input: Status in this test for COc1cc(C2C(C#N)=C(N)Oc3cc(O)ccc32)cc(OC)c1OC (stereo unspecified) ?
Output: No

Input: Status in this test for CCCc1nc(C(C)(C)O)c(C(=O)O)n1Cc1ccc(-c2ccccc2-c2nn[nH]n2)cc1 ?
Output: No

Input: Status in this test for Nc1nc(-c2ccc(Cl)cc2)cc(-c2cc3ccccc3oc2=O)n1 ?
Output: No

Input: Status in this test for O=C(CSc1nccc(Nc2cccc3ccccc23)n1)c1ccc(Cl)cc1 ?
Output: No

Input: Status in this test for CCOC(=O)N/N=C/c1ccc(OC)c(OC)c1 ?
Output: No

Input: Status in this test for CC(C)N(CCOc1cccc(-c2nc3sccn3c2-c2ccnc(S(C)(=O)=O)n2)c1)C(C)C ?
Output: No

Input: Status in this test for CCn1c(SC/C(=N/O)c2ccccc2)nnc1-c1ccccc1 ?
Output: No

Input: Status in this test for c1ccc2c(c1)Cc1ccccc1N2CCN1CCCCC1 ?
Output: No

Input: Status in this test for CCOC(=O)c1sc2ncnc(Nc3ccc4c(cnn4C(=O)Nc4ccccc4)c3)c2c1C ?
Output: No

Input: Status in this test for OC(CNc1ccnc2cc(Cl)ccc12)CNC1CCCCC1 (stereo unspecified) ?
Output: No

Input: Status in this test for O=C(COc1cccc(/C=C2\CSc3ccc(Cl)cc3C2=O)c1)c1ccc(Cl)cc1 ?
Output: No

Input: Status in this test for CC(C)(C)c1ccc(S(=O)(=O)N[C@H]2CC[C@H]3[C@@H]4CCc5cc(OS(=O)(=O)O)ccc5[C@H]4CC[C@]23C)cc1 ?
Output: No

Input: Status in this test for O=C1Cc2cc(CCN3CCN(c4nsc5ccccc45)CC3)c(Cl)cc2N1 ?
Output: No

Input: Status in this test for CC1=NN(C(=O)c2nn(-c3ccc(Cl)cc3)cc2O)C(=O)C1 ?
Output: No

Input: Status in this test for CCC(c1ccc(OC)cc1)C(CC)c1ccc(O)c(CN2CCN(C)CC2)c1 (stereo unspecified) ?
Output: No

Input: Status in this test for CCOC(=O)c1cc(C(=O)c2cc(OC)c(OC)c(OC)c2)n2ncc3ccccc3c12 ?
Output: No

Input: Status in this test for COc1ccc(Cc2cnc(N)nc2N)cc1OC ?
Output: No

Input: Status in this test for Cc1ccccc1N1C(=O)c2cc(S(N)(=O)=O)c(Cl)cc2NC1C (stereo unspecified) ?
Output: No

Input: Status in this test for CC1C(=NC(=O)c2cnccn2)C(C)C(c2ccc(Cl)cc2)NC1c1ccncc1 (stereo unspecified) ?
Output: No

Input: Status in this test for CC[C@@H](C(=O)[C@@H](C)[C@@H](O)[C@H](C)[C@@H]1O[C@@H]([C@@H](CC)C(=O)N(CC)CC)CC[C@@H]1C)C1O[C@]2(C=CC(=O)[C@]3(CC[C@@](C)([C@H]4CC[C@](O)(CC)[C@H](C)O4)O3)O2)[C@H](C)C[C@@H]1C (stereo partly specified) ?
Output: No

Input: Status in this test for CCOC(=O)C1C(C(=O)OCC)C2C(=O)C3C(C(=O)OCC)C(C(=O)OCC)C3C(=O)C12 (stereo unspecified) ?
Output: No

Input: Status in this test for OCC1OC(n2ccc3c(NO)ncnc32)C(O)C1O (stereo unspecified) ?
Output: Yes

Input: Status in this test for OC[C@H]1OC([S-])[C@H](O)[C@@H](O)[C@@H]1O.[Au+] (stereo partly specified) ?
Output: No

Input: Status in this test for COc1ccc2c(c1)C(CC(=O)NN)CCC2 (stereo unspecified) ?
Output: No

Input: Status in this test for O=C(N/N=C/c1ccc(Cl)cc1)c1ccc(Cc2n[nH]c(=O)c3cccnc23)cc1 ?
Output: No

Input: Status in this test for Cc1ccc2nc(Cl)c(-c3nc4ccccc4o3)cc2c1 ?
Output: No

Input: Status in this test for O=C(Nc1cc([N+](=O)[O-])c2[nH]c(=O)c3ccccc3c2c1)C(F)(F)F ?
Output: No

Input: Status in this test for Nc1cc(-c2ccncc2)c[nH]c1=O ?
Output: No

Input: Status in this test for O=C(Nc1ccc(OS(=O)(=O)c2ccccc2)cc1)C1CCCCC1 ?
Output: No

Input: Status in this test for CCOC(=O)c1cc(C(=O)c2cc(OC)cc(OC)c2)n2nc(C)ccc12 ?
Output: No

Input: Status in this test for O=C(O)COc1c(Cl)cc([N+](=O)[O-])cc1Cl ?
Output: No

Input: Status in this test for O=C(CN(C1CCCCC1)C1CCCCC1)Nc1ccc(S(=O)(=O)c2ccc(NC(=O)CN(C3CCCCC3)C3CCCCC3)cc2)cc1 ?
Output: Yes

Input: Status in this test for CCOC(=O)C(C)(c1ccccc1)c1ccccc1 ?
Output: No

Input: Status in this test for O=C1c2ccccc2C(=O)N1CCCCNc1ccccc1 ?
Output: No

Input: Status in this test for Nc1ccccc1NC(=O)c1ccc(CCCC(=O)Nc2ccc(C3CC3N)cc2)cc1 (stereo unspecified) ?
Output: No

Input: Status in this test for COc1ccc(C2=Cn3c(CCC(=O)c4nc5ccccc5[nH]4)nnc3SC2)cc1 ?
Output: No

Input: Status in this test for COc1ccc(N=Nc2cc(OC)c(OC)c(OC)c2)cc1 ?
Output: No

Input: Status in this test for COc1ccc(/C=C2\CCCC3=C2N=C2SC(C)=CN2C3c2ccc(OC)cc2)cc1 (stereo unspecified) ?
Output: No

Input: Status in this test for CN1C(C(=O)Nc2ccccn2)=C(O)c2sc(Cl)cc2S1(=O)=O ?
Output: No

Input: Status in this test for CCNc1nc(C(F)(F)F)nc2c1sc(=S)n2-c1ccccc1 ?
Output: No

---

tested on: KM12 colon; experiment: NCI-60 one-dose screen, 48 h (100 = growth as untreated, 0 = no growth, -100 = all killed); details: 10 µM
This is part of a sample that, as a whole, favours compounds with a hit. Of some 83,000 tested, about 20% had one in any assay.
Recorded Metric: growth (%)
Just the number please, in %, no unit attached.

Input: Given the compound CCCCc1oc2ccccc2c1C(=O)c1cc(I)c(OCCN(CC)CC)c(I)c1 , write its reported growth.
Output: -47.6

Input: Given the compound C[C@@H](C[C@H](CCO)c1ccccc1)c1ccc2ccccc2c1 , write its reported growth.
Output: -42.3

Input: Given the compound Cc1ccc(C(C)C)c(O)c1NC(=O)OC(C)C , write its reported growth.
Output: 100

Input: Given the compound Cc1cn(-c2cc(F)cc(NC(=O)c3ccc(C)c(Nc4nccc(-c5cccnc5)n4)c3)c2)cn1 , write its reported growth.
Output: 15.6

Input: Given the compound COc1cccc(-c2nc3sccn3c2-c2cccc(S(C)(=O)=O)c2)c1 , write its reported growth.
Output: 109

Input: Given the compound COc1cc2cc(Oc3ccc(NC(=O)c4cccc(C(F)(F)F)c4)cc3)c(C)nc2cc1OC , write its reported growth.
Output: 25.8

Input: Given the compound COc1cc2c(cc1NC(=O)C(F)(F)F)-c1ccc(NC(=O)C(F)(F)F)cc1C2 , write its reported growth.
Output: 97.3

Input: Given the compound Cc1ccc(NCCN(C)CC(C)O)c2c(=O)c3ccc(Cl)cc3sc12 (stereo unspecified) , write its reported growth.
Output: 43.7

Input: Given the compound NC1=CC(=O)C(=O)c2cccnc21 , write its reported growth.
Output: 76.7

Input: Given the compound COc1cc2nc(SCC(=O)Nc3cc(OC)c(OC)c(OC)c3)n(Cc3ccccc3)c(=O)c2cc1OC , write its reported growth.
Output: 77.8

Input: Given the compound COc1cc2cc(Oc3ccc(NC(=O)Nc4cccc(C(F)(F)F)c4)cc3)c(C)nc2cc1OC , write its reported growth.
Output: -10.2

Input: Given the compound Cc1ccc(S(=O)(=O)N/N=C2\CCCc3ccccc32)cc1 , write its reported growth.
Output: 111

Input: Given the compound COc1cc(-c2nn(-c3cccc(NC(=O)NCCNC(=O)c4ccccc4)c3)cc2-c2ccncc2)ccc1Cl , write its reported growth.
Output: 12.2

Input: Given the compound Cc1cc(CCNC=O)c(C)c2c1sc1ccccc12 , write its reported growth.
Output: 103

Input: Given the compound CC(C)(C)OC(=O)N1CCc2c(sc3ncnc(N/N=C/c4cccc5ccccc45)c23)C1 , write its reported growth.
Output: 23.4

Input: Given the compound CCC(=O)OC1CCC2C3CCC(=O)OC3C(C)(CCC(=O)O)CC12C (stereo unspecified) , write its reported growth.
Output: 25.7

Input: Given the compound Cc1cc(=O)n2nnc3cc(Cl)c(Cl)cc3n12 , write its reported growth.
Output: 109

Input: Given the compound CCOC(=O)N/N=C/c1ccc(OC)c(OC)c1 , write its reported growth.
Output: 117

Input: Given the compound COc1cc2cc(Oc3ccc(NC(=O)Nc4ccc(Cl)c(C(F)(F)F)c4)cc3)c(C)nc2cc1OC , write its reported growth.
Output: -16.4

Input: Given the compound CCOC(=O)C1=CSC2=NC3=C(CCC/C3=C\c3cc(OC)c(OC)c(OC)c3)C(c3cc(OC)c(OC)c(OC)c3)N12 (stereo unspecified) , write its reported growth.
Output: -21.8

Input: Given the compound COC(=O)C1(O)NC(=C(C#N)C#N)C(C#N)=C1C(=O)c1ccc(OC)c(OC)c1 (stereo unspecified) , write its reported growth.
Output: 105
